Data provenance is ChEMBL document CHEMBL1137791.

molecular target: Cell division cycle 7-related protein kinase (Homo sapiens)
Sequence (O00311 whole entry): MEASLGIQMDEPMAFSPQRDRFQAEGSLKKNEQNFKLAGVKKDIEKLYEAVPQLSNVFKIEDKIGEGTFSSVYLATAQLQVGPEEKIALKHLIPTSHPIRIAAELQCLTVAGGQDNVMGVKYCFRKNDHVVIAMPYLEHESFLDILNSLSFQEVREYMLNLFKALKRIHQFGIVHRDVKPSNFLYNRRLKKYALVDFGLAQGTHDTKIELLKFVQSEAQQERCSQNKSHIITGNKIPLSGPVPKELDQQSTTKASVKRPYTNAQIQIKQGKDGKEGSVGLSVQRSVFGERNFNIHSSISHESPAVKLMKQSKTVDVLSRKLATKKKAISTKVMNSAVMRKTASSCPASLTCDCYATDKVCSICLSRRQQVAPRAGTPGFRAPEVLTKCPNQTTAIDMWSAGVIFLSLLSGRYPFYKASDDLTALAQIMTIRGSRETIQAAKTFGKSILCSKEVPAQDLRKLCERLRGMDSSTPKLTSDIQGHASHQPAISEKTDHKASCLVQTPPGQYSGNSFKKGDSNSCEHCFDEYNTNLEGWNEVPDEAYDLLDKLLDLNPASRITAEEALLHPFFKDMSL
recorded-endpoint: IC50 (nM)
Give the value, in units of nM, as a plain number.

O=C1NC(N2CCCCC2)=N/C1=C\c1c[nH]c2ncccc12 : 25
O=C1NC(NCc2cccc(Cl)c2)=N/C1=C\c1c[nH]c2ncccc12 : 39
O=C1N=C(NCc2ccco2)S/C1=C\c1c[nH]c2ncccc12 : 4
Cc1ccc(C2=N/C(=C\c3c[nH]c4ncccc34)C(=O)N2)cc1 : 47

// next item, IC50 requested
[in] Please provide the recorded IC50 for CC1CCC(NC2=N/C(=C\c3c[nH]c4ncccc34)C(=O)N2)CC1 (stereo unspecified) , tested on Cell division cycle 7-related protein kinase (Homo sapiens).
[out] 13
